Experimental System: T1, Dimeric Human Ang-2FD conjugated to human IgG1 (human)
T1 construct: also called Human Ang-2FD-hFc; hAng-2FD-hFc
T1 sequence (chain, as listed by the source limits assumed): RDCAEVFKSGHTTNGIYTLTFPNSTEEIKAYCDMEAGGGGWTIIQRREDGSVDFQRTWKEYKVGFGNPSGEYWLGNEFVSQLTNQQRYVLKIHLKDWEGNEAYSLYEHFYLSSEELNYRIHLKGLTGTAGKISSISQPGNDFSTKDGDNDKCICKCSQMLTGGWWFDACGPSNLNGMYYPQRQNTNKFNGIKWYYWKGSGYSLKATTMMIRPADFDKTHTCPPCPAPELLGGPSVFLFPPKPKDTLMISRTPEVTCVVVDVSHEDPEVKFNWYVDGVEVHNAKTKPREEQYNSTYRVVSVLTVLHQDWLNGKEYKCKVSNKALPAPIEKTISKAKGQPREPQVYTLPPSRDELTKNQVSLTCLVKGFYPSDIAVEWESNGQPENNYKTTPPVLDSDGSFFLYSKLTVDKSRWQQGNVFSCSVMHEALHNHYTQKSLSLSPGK
Experiment Notes: SPR, captured Ab, RT
pKd: −log10 of the molar value.
Entries and their pKd values follow.

{"Binder": "H1H696P (antibody, V domains shown) VH: QVQLVESGGGLVKPGGSLRLSCAASGFTFSDYYMSWIRQAPGKGLEWVSYISYTGRTIYYADSVKGRFTISRDNAKNSLYLQMNSLRAEDTAVYYCARDTDYGDFFDYWGQGTLVTVSS VL: DIQMTQSPSSLSASVGDRVTITCRASQGISNYLAWFQQKPGKAPKSLIYAASSLQSGVPSKFSGSGSGTDFTLTISSLQPEDFATYYCQQYNSYPLTFGGGTKVEIK", "pKd": 9.54}
{"Binder": "H2M749N (antibody, V domains shown, also called H1M749N; H1M749) VH: QVQLVESGGGVVQPGRSLRLSCAASGFTFSSYGMHWVRQAPGKGLEWVAVIWYDEFNKYYADSVKGRFTISRDNSKNTLYLQMNSLRAEDTAVYYCARERESGYSYGFDYWGQGTLVTVSS VL: EIVMTQSPATLSVSPGERATLSCRAGQSVSSNLAWYQQKPGQAPRLLIYGASTRATGIPARFSGSGSGTEFTLTISSLQSEDFAVYYCQQYNNWWTFGQGTKVEIK", "pKd": 9.78}
{"Binder": "H1M732N (antibody, V domains shown) VH: EVQLVESGGGLVRPGGSLRLSCAASGFTFTNAWMSWVRQAPGKGLEWIGQIKSKTDGGTIDYAAPVKGRFTVSRDDSENTLFLQMNSLKTEDTAVYYCAGNWNYVDFDYWGQGTLVTVSS VL: DIQMTQSPSSLSASVGDRVTITCRASQDIRNDLGWYQQKPGKAPKRLIYAASSLQGGVPSRFSGSGSGTEFTLTISSLQPEDFATYYCLQHNSYPFTFGPGTKVDIK", "pKd": 9.32}
{"Binder": "H1H732N (antibody, V domains shown) VH: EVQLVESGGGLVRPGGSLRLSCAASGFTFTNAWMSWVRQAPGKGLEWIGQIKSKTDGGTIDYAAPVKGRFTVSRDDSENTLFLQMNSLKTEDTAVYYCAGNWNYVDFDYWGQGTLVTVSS VL: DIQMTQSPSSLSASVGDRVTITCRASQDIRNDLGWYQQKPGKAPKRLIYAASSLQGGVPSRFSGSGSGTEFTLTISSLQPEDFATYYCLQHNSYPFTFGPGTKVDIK", "pKd": 9.41}
